- method-notes: Drug uptake in human MCF7 cells at 1 to 10 uM after 24 hrs by HPLC-MS/MS analysis
- Assay type: ADME, cell-based
- setup-conditions: mcf7, 24 h, dose 1-10 µM
reported-metric: Drug uptake

item-smiles	meas-value
CCCCCCCCCCCCCC(=O)N[C@H](CO)[C@@H](O)c1ccc([N+](=O)[O-])cc1	Active
CCCCCCCCCCCCCC(=O)N[C@H](CO)[C@H](O)c1ccc([N+](=O)[O-])cc1	Active
CCCCCCCCCCCCCC(=O)N[C@@H](CO)[C@@H](O)c1ccc([N+](=O)[O-])cc1	Active
